# Tested on: NCI-H2141 (Small Cell Lung Carcinoma)
# assaySummary: combination Emax (second highest fraction inhibited in the dose matrix, 72 h); higher = more inhibition; extreme values may be limits of the assay
Reported combination Emax values for the following compounds.

[
  {
    "compound": "COc1nnc2ccc(N3CCC(c4ccc(OCCN5CCN(C)C(=O)[C@H]5C)cc4)CC3)nn12 [AZD5153] + CC1(C)CCC(CN2CCN(c3ccc(C(=O)NS(=O)(=O)c4ccc(NCC5CCOCC5)c([N+](=O)[O-])c4)c(Oc4cnc5[nH]ccc5c4)c3)CC2)=C(c2ccc(Cl)cc2)C1 [Venetoclax] (first compound max 1 µM, 7x7, partner max 1 µM)",
    "combination Emax": 0.262
  },
  {
    "compound": "CCN(CCO)CCCOc1ccc2c(Nc3cc(CC(=O)Nc4cccc(F)c4)[nH]n3)ncnc2c1 [AZD2811] + C=CCn1c(=O)c2cnc(Nc3ccc(N4CCN(C)CC4)cc3)nc2n1-c1cccc(C(C)(C)O)n1 [AZD1775] (first compound max 1 µM, partner max 1 µM)",
    "combination Emax": 0.502
  },
  {
    "compound": "Cn1cnc2c(F)c(Nc3ccc(Br)cc3Cl)c(C(=O)NOCCO)cc21 [Selumetinib] + CC(C)n1c(=O)n(C)c2cnc3cc(F)c(-c4ccc(OCCCN5CCCCC5)nc4)cc3c21 [AZD1390] (first compound max 10 µM, 7x7, partner max 0.3 µM)",
    "combination Emax": 0.0858
  },
  {
    "compound": "COc1cccc(OCCCN)c1-c1cc(Nc2cnc(C#N)cn2)n[nH]1 [Prexasertib] + C[C@@H]1COCCN1C2=NC(=NC(=C2)C3(CC3)[S@](=N)(=O)C)C4=C5C=CNC5=NC=C4 [AZD6738] (first compound max 1 µM, 7x7, partner max 10 µM)",
    "combination Emax": 0.573
  },
  {
    "compound": "Cc1cc2ncnn2cc1Nc1ncc2c(n1)n(C1CCOCC1)c(=O)n2C [AZD7648] + CN(C)CCCOc1ccc(-c2ccc3ncc4c(c3c2)n(C2CCOCC2)c(=O)n4C)cn1 [AZD0156] (first compound max 10 µM, 7x7, partner max 1 µM)",
    "combination Emax": 0.229
  },
  {
    "compound": "CN(C)CCCOc1ccc(-c2ccc3ncc4c(c3c2)n(C2CCOCC2)c(=O)n4C)cn1 [AZD0156] + C=CCn1c(=O)c2cnc(Nc3ccc(N4CCN(C)CC4)cc3)nc2n1-c1cccc(C(C)(C)O)n1 [AZD1775] (first compound max 1 µM, partner max 1 µM)",
    "combination Emax": 0.558
  },
  {
    "compound": "COc1cccc(OCCCN)c1-c1cc(Nc2cnc(C#N)cn2)n[nH]1 [Prexasertib] + C=CCn1c(=O)c2cnc(Nc3ccc(N4CCN(C)CC4)cc3)nc2n1-c1cccc(C(C)(C)O)n1 [AZD1775] (first compound max 1 µM, partner max 1 µM)",
    "combination Emax": 0.588
  }
]

---

# System: NCI-H1666 (Lung Adenocarcinoma)
# assaySummary: Bliss excess, mean over the matrix (fraction); higher = more synergy
Quick rule for you: Bliss excess at -0.06 or higher means rule met, lower means rule not met.

[
  {
    "compound": "CN(C)CCCOc1ccc(-c2ccc3ncc4c(c3c2)n(C2CCOCC2)c(=O)n4C)cn1 [AZD0156] + C[C@@H]1COCCN1C2=NC(=NC(=C2)C3(CC3)[S@](=N)(=O)C)C4=C5C=CNC5=NC=C4 [AZD6738] (first compound max 1 µM, 7x7, partner max 10 µM)",
    "category": "rule met"
  },
  {
    "compound": "CC1(C)CCC(CN2CCN(c3ccc(C(=O)NS(=O)(=O)c4ccc(NCC5CCOCC5)c([N+](=O)[O-])c4)c(Oc4cnc5[nH]ccc5c4)c3)CC2)=C(c2ccc(Cl)cc2)C1 [Venetoclax] + C=CCn1c(=O)c2cnc(Nc3ccc(N4CCN(C)CC4)cc3)nc2n1-c1cccc(C(C)(C)O)n1 [AZD1775] (first compound max 1 µM, partner max 1 µM)",
    "category": "rule met"
  },
  {
    "compound": "CN(C)CCCOc1ccc(-c2ccc3ncc4c(c3c2)n(C2CCOCC2)c(=O)n4C)cn1 [AZD0156] + CCN(CCO)CCCOc1ccc2c(Nc3cc(CC(=O)Nc4cccc(F)c4)[nH]n3)ncnc2c1 [AZD2811] (first compound max 1 µM, 7x7, partner max 1 µM)",
    "category": "rule not met"
  },
  {
    "compound": "Cc1c2c(nn1C)CSCc1cc(n(C)n1)CSc1cc(c3ccccc3c1)OCCCc1c(C(=O)O)n(C)c3c-2c(Cl)ccc13 [AZD5991] + Nc1ccn([C@@H]2O[C@H](CO)[C@@H](O)C2(F)F)c(=O)n1 [Gemcitabine] (first compound max 1 µM, 7x7, partner max 0.3 µM)",
    "category": "rule met"
  },
  {
    "compound": "CCN(CCO)CCCOc1ccc2c(Nc3cc(CC(=O)Nc4cccc(F)c4)[nH]n3)ncnc2c1 [AZD2811] + C[C@@H]1COCCN1C2=NC(=NC(=C2)C3(CC3)[S@](=N)(=O)C)C4=C5C=CNC5=NC=C4 [AZD6738] (first compound max 1 µM, 7x7, partner max 10 µM)",
    "category": "rule not met"
  },
  {
    "compound": "O=C(c1cc(Cc2n[nH]c(=O)c3ccccc23)ccc1F)N1CCN(C(=O)C2CC2)CC1 [Olaparib] + Cc1c2c(nn1C)CSCc1cc(n(C)n1)CSc1cc(c3ccccc3c1)OCCCc1c(C(=O)O)n(C)c3c-2c(Cl)ccc13 [AZD5991] (first compound max 10 µM, 7x7, partner max 1 µM)",
    "category": "rule not met"
  },
  {
    "compound": "O=C(c1cc(Cc2n[nH]c(=O)c3ccccc23)ccc1F)N1CCN(C(=O)C2CC2)CC1 [Olaparib] + COc1nnc2ccc(N3CCC(c4ccc(OCCN5CCN(C)C(=O)[C@H]5C)cc4)CC3)nn12 [AZD5153] (first compound max 10 µM, 7x7, partner max 1 µM)",
    "category": "rule met"
  }
]

---

# Tested on: MDST8 (Colorectal Carcinoma)
# assaySummary: combination Emax (second highest fraction inhibited in the dose matrix, 72 h); higher = more inhibition; extreme values may be limits of the assay

[
  {
    "molecule": "CC1(C)CCC(CN2CCN(c3ccc(C(=O)NS(=O)(=O)c4ccc(NCC5CCOCC5)c([N+](=O)[O-])c4)c(Oc4cnc5[nH]ccc5c4)c3)CC2)=C(c2ccc(Cl)cc2)C1 [Venetoclax] + CCN(CCO)CCCOc1ccc2c(Nc3cc(CC(=O)Nc4cccc(F)c4)[nH]n3)ncnc2c1 [AZD2811] (first compound max 1 µM, 7x7, partner max 1 µM)",
    "combination Emax": 0.306
  },
  {
    "molecule": "NC1(C(=O)N[C@@H](CCO)c2ccc(Cl)cc2)CCN(c2ncnc3[nH]ccc23)CC1 [Capivasertib] + CC(=O)c1c(C)c2cnc(Nc3ccc(N4CCNCC4)cn3)nc2n(C2CCCC2)c1=O [Palbociclib] (first compound max 10 µM, 7x7, partner max 10 µM)",
    "combination Emax": 0.656
  }
]

---

Reported Bliss excess values for the following molecules.
# Test system: VCaP (Prostate Carcinoma)
# assaySummary: Bliss excess, mean over the matrix (fraction); higher = more synergy

[
  {
    "molecule": "C=CCn1c(=O)c2cnc(Nc3ccc(N4CCN(C)CC4)cc3)nc2n1-c1cccc(C(C)(C)O)n1 [AZD1775] + O=C(c1cc(Cc2n[nH]c(=O)c3ccccc23)ccc1F)N1CCN(C(=O)C2CC2)CC1 [Olaparib] (first compound max 1 µM, partner max 10 µM)",
    "Bliss excess": -0.0494
  },
  {
    "molecule": "CN(CCO)CC[C@H](CSc1ccccc1)Nc1ccc(S(=O)(=O)NC(=O)c2ccc(N3CCC([C@@H](O)c4ccccc4-c4ccc(Cl)cc4)CC3)cc2)cc1S(=O)(=O)C(F)(F)F [AZD4320] + Cc1cc2ncnn2cc1Nc1ncc2c(n1)n(C1CCOCC1)c(=O)n2C [AZD7648] (first compound max 1 µM, 7x7, partner max 10 µM)",
    "Bliss excess": -0.0185
  }
]

---

# System: NY (Osteosarcoma)
# assaySummary: Bliss excess, mean over the matrix (fraction); higher = more synergy

[
  {
    "molecule": "CC1(C)CCC(CN2CCN(c3ccc(C(=O)NS(=O)(=O)c4ccc(NCC5CCOCC5)c([N+](=O)[O-])c4)c(Oc4cnc5[nH]ccc5c4)c3)CC2)=C(c2ccc(Cl)cc2)C1 [Venetoclax] + Cc1cc2ncnn2cc1Nc1ncc2c(n1)n(C1CCOCC1)c(=O)n2C [AZD7648] (first compound max 1 µM, 7x7, partner max 10 µM)",
    "targetSystem": "NY (Osteosarcoma)",
    "Bliss excess": 0.0011
  },
  {
    "molecule": "CN(CCO)CC[C@H](CSc1ccccc1)Nc1ccc(S(=O)(=O)NC(=O)c2ccc(N3CCC([C@@H](O)c4ccccc4-c4ccc(Cl)cc4)CC3)cc2)cc1S(=O)(=O)C(F)(F)F [AZD4320] + C[C@@H](Nc1cc(F)cc(F)c1)c1cc(C(=O)N(C)C)cc2c(=O)cc(N3CCOCC3)oc12 [AZD8186] (first compound max 1 µM, 7x7, partner max 3 µM)",
    "targetSystem": "NY (Osteosarcoma)",
    "Bliss excess": -0.005
  },
  {
    "molecule": "Cc1nc(-c2cn3c(n2)-c2ccc(-c4cnn(C(C)(C)C(N)=O)c4)cc2OCC3)n(C(C)C)n1 [Taselisib] + O=C(Nc1ccc2[nH]nc(-c3ccncc3)c2c1)[C@@H]1CCN(CC(=O)N2CCN(c3ccc(-c4ncccn4)cc3)CC2)C1 [SCH772984] (first compound max 10 µM, 7x7, partner max 5 µM)",
    "targetSystem": "NY (Osteosarcoma)",
    "Bliss excess": 0.0687
  },
  {
    "molecule": "CN(CCO)CC[C@H](CSc1ccccc1)Nc1ccc(S(=O)(=O)NC(=O)c2ccc(N3CCC([C@@H](O)c4ccccc4-c4ccc(Cl)cc4)CC3)cc2)cc1S(=O)(=O)C(F)(F)F [AZD4320] + CS(=O)(=O)CCNCc1ccc(-c2ccc3ncnc(Nc4ccc(OCc5cccc(F)c5)c(Cl)c4)c3c2)o1 [Lapatinib] (first compound max 1 µM, 7x7, partner max 10 µM)",
    "targetSystem": "NY (Osteosarcoma)",
    "Bliss excess": 0.0035
  },
  {
    "molecule": "CC1(C)CCC(CN2CCN(c3ccc(C(=O)NS(=O)(=O)c4ccc(NCC5CCOCC5)c([N+](=O)[O-])c4)c(Oc4cnc5[nH]ccc5c4)c3)CC2)=C(c2ccc(Cl)cc2)C1 [Venetoclax] + C[C@@H](Nc1cc(F)cc(F)c1)c1cc(C(=O)N(C)C)cc2c(=O)cc(N3CCOCC3)oc12 [AZD8186] (first compound max 1 µM, 7x7, partner max 3 µM)",
    "targetSystem": "NY (Osteosarcoma)",
    "Bliss excess": 0.0226
  },
  {
    "molecule": "Cc1cc2ncnn2cc1Nc1ncc2c(n1)n(C1CCOCC1)c(=O)n2C [AZD7648] + O=C(c1cc(Cc2n[nH]c(=O)c3ccccc23)ccc1F)N1CCN(C(=O)C2CC2)CC1 [Olaparib] (first compound max 10 µM, 7x7, partner max 10 µM)",
    "targetSystem": "NY (Osteosarcoma)",
    "Bliss excess": -0.0311
  },
  {
    "molecule": "COc1cccc(OCCCN)c1-c1cc(Nc2cnc(C#N)cn2)n[nH]1 [Prexasertib] + CCc1c2c(nc3ccc(O)cc13)-c1cc3c(c(=O)n1C2)COC(=O)[C@]3(O)CC [SN-38] (first compound max 1 µM, 7x7, partner max 0.3 µM)",
    "targetSystem": "NY (Osteosarcoma)",
    "Bliss excess": -0.0647
  },
  {
    "molecule": "CN(CCO)CC[C@H](CSc1ccccc1)Nc1ccc(S(=O)(=O)NC(=O)c2ccc(N3CCC([C@@H](O)c4ccccc4-c4ccc(Cl)cc4)CC3)cc2)cc1S(=O)(=O)C(F)(F)F [AZD4320] + Cn1cnc2c(F)c(Nc3ccc(Br)cc3Cl)c(C(=O)NOCCO)cc21 [Selumetinib] (first compound max 1 µM, 7x7, partner max 3 µM)",
    "targetSystem": "NY (Osteosarcoma)",
    "Bliss excess": 0.0072
  },
  {
    "molecule": "CC1(C)CCC(CN2CCN(c3ccc(C(=O)NS(=O)(=O)c4ccc(NCC5CCOCC5)c([N+](=O)[O-])c4)c(Oc4cnc5[nH]ccc5c4)c3)CC2)=C(c2ccc(Cl)cc2)C1 [Venetoclax] + COc1cc(Nc2ncc3c(n2)-c2ccc(Cl)cc2C(c2c(F)cccc2OC)=NC3)ccc1C(=O)O [Alisertib] (first compound max 1 µM, 7x7, partner max 10 µM)",
    "targetSystem": "NY (Osteosarcoma)",
    "Bliss excess": -0.0009
  },
  {
    "molecule": "CC1(C)CCC(CN2CCN(c3ccc(C(=O)NS(=O)(=O)c4ccc(NCC5CCOCC5)c([N+](=O)[O-])c4)c(Oc4cnc5[nH]ccc5c4)c3)CC2)=C(c2ccc(Cl)cc2)C1 [Venetoclax] + Cn1cnc2c(F)c(Nc3ccc(Br)cc3Cl)c(C(=O)NOCCO)cc21 [Selumetinib] (first compound max 1 µM, 7x7, partner max 3 µM)",
    "targetSystem": "NY (Osteosarcoma)",
    "Bliss excess": -0.0331
  },
  {
    "molecule": "CN(CCO)CC[C@H](CSc1ccccc1)Nc1ccc(S(=O)(=O)NC(=O)c2ccc(N3CCC([C@@H](O)c4ccccc4-c4ccc(Cl)cc4)CC3)cc2)cc1S(=O)(=O)C(F)(F)F [AZD4320] + CCN(CCO)CCCOc1ccc2c(Nc3cc(CC(=O)Nc4cccc(F)c4)[nH]n3)ncnc2c1 [AZD2811] (first compound max 1 µM, 7x7, partner max 1 µM)",
    "targetSystem": "NY (Osteosarcoma)",
    "Bliss excess": -0.0182
  },
  {
    "molecule": "CCc1c2c(nc3ccc(O)cc13)-c1cc3c(c(=O)n1C2)COC(=O)[C@]3(O)CC [SN-38] + CN(C)CCCOc1ccc(-c2ccc3ncc4c(c3c2)n(C2CCOCC2)c(=O)n4C)cn1 [AZD0156] (first compound max 0.3 µM, 7x7, partner max 1 µM)",
    "targetSystem": "NY (Osteosarcoma)",
    "Bliss excess": -0.0288
  }
]

Where these numbers come from: the supplement of paper PMC11061612
